The measured values listed here are drawn from patent US12686680B2.

# Test protocol: Solubility determination of solid forms of Compound 1 in solvents (Example 52)
# Format: physicochemical
# Experimental conditions: 50 mM CB pH 6
Measured property: Measured pH

CCCN(Cc1ccc(-c2csc(N(C)C)n2)cc1)c1cc(C)nc2c(-c3cnc(N(C)C)cc3C)c(C)nn12 [Compound 1-2 (FB)] : pH 6.1
CCCN(Cc1ccc(-c2csc(N(C)C)n2)cc1)c1cc(C)nc2c(-c3cnc(N(C)C)cc3C)c(C)nn12 [Compound 1-1 (FB)] : pH 6.1

----------
# System under test: CRF1 receptor (Homo sapiens, UniProt P34998)
# Sequence (P34998 24-415): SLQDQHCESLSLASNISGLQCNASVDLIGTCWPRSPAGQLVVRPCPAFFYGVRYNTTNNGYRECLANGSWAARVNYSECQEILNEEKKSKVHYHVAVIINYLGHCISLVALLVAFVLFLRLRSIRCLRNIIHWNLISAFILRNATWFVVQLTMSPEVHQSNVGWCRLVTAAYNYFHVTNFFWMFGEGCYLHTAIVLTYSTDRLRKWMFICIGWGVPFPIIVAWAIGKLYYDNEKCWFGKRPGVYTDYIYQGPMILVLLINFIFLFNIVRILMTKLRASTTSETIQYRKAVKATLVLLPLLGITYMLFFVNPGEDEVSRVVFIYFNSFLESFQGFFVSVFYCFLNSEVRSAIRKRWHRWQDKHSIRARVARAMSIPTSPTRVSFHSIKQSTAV
# Test protocol: CRF1 receptor binding kinetics (association/dissociation rate constants, method of Fleck et al.)
# Experimental conditions: dissociation rate constant
k^−1 values by entry

CCCN(Cc1ccc(-c2cccnc2)cc1)c1cc(C)nc2c(-c3cnc(N(C)C)cc3C)c(C)nn12 : <0.001 min⁻¹

k^−1 reading for CCCN(Cc1ccc(-c2csc(NC)n2)cc1)c1cc(C)nc2c(-c3cnc(N(C)C)cc3C)c(C)nn12 : 0.0017 min⁻¹
